Tested on: Escherichia coli TOP10;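 note: peptides expressed intracellularly from a pBAD plasmid library in pooled LB shake-flask culture, induced with 0.3% L-arabinose, DNA abundance read by NGS, three biological replicates, DESeq2 with apeglm shrinkage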
Test: shrunken log2 fold change of peptide-encoding DNA abundance (4.5 h post-induction vs induction); higher = less antimicrobial activity (less host growth inhibition)
Settings: time post-induction: 4.5 h; library: site-saturation at positions 5, 18, 19, 20
Reported Property: shrunken log2 fold change
Field format: numeric only.

Some solved entries appear below for comparison.
RRIRWRPPRLPRPRPRPVWTPRP : 0.162
RRIRIRPPRLPRPRPRPFESPRP : -0.218
RRIRMRPPRLPRPRPRPNMRPRP : 1.6
RRIRARPPRLPRPRPRPLGWPRP : 0.951
RRIRVRPPRLPRPRPRPSLRPRP : 0.133

Which shrunken log2 fold change value is on record for RRIRIRPPRLPRPRPRPSEGPRP ?
-0.0262

Which shrunken log2 fold change value is on record for RRIRARPPRLPRPRPRPEFTPRP ?
0.475
